Target: human recombinant PAK1-KD protein (Homo sapiens, UniProt Q13153)
Construct: made in house; host or cells: Tini [sic] cells infected with recombinant baculovirus
Sequence (Q13153 270-521 limits assumed): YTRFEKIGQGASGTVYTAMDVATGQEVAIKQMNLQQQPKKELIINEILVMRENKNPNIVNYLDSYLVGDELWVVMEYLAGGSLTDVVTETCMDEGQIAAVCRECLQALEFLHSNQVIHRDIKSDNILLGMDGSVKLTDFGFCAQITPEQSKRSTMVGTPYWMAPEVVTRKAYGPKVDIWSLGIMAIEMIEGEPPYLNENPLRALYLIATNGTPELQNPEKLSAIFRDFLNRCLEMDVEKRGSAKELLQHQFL
Experiment: PAK1-KD (kinase domain) IC50 Zlyte assay
Assay type: biochemical
Conditions: Z'-LYTE FRET peptide substrate (Ser/Thr19), 60-minute incubation at 22° C.
pIC50: −log10 of the molar value.
Measurement Type: pIC50

>>> value_reported("CCN1CCC(CCNc2ncc3cc(-c4cccc(S(C)(=O)=O)c4)c(=O)n(CC)c3n2)CC1 [Compound I-2]")
5.77

[P] CCn1c(=O)c(-c2ccc([S+]([O-])C3CC3)cc2)cc2cnc(NCCC3CCN(C)CC3)nc21 (centres unmarked) [Compound I-12]
[Q] CCn1c(=O)c(-c2ccc(S(C)(=O)=O)nc2)cc2cnc(NCCC3CCN(C)CC3)nc21 [Compound I-11]
Q: When their pIC50 values are compared, which is larger, P or Q ? Mark your selection by writing its label.
Result: P

* * *

Target: human recombinant PAK1-KD protein (Homo sapiens, UniProt Q13153)
Assay: PAK1-KD (kinase domain) IC50 Zlyte assay
Details: Z'-LYTE FRET peptide substrate (Ser/Thr19), 60-minute incubation at 22° C.
pIC50: −log10 of the molar value.
# key: entry, value: pIC50

>>> value_reported("CCn1c(=O)c(-c2ccc([S+](C)[O-])cc2)cc2cnc(NCCC3CCN(C)CC3)nc21 (centres unmarked)")
"< 5.35"
>>> value_reported("CCN1CCC(CCNc2ncc3cc(-c4ccc(S(C)(=O)=O)cc4)c(=O)n(CC)c3n2)CC1")
"< 5.35"
>>> value_reported("CCn1c(=O)c(-c2ccc(S(=O)(=O)C3CC3)cc2Cl)cc2cnc(NCCC3CCN(C)CC3)nc21")
7.17
>>> value_reported("CCn1c(=O)c(-c2ccc(S(=O)(=O)C3CC3)cc2)cc2cnc(NCCC3CCN(C)CC3)nc21")
5.52
>>> value_reported("CCNc1ncc2cc(-c3ccc(S(C)(=O)=O)cc3Cl)c(=O)n(C[C@H]3CC[C@H](N)CC3)c2n1")
6.76

Q: Short answer please: pIC50, human recombinant PAK1-KD protein (Homo sapiens, UniProt Q13153), entry CCn1c(=O)c(-c2ccc(S(C)(=O)=O)cc2)cc2cnc(NCCC3CCN(C)CC3)nc21
Result: < 5.35

Q: Again, but for CCn1c(=O)c(-c2ccc(S(C)(=O)=O)cc2)cc2cnc(N[C@H]3[C@@H]4CNC[C@@H]43)nc21
Result: < 5.35

Q: Again, but for CCn1c(=O)c(-c2ccccc2S(C)(=O)=O)cc2cnc(NCCC3CCN(C)CC3)nc21
Result: < 5.35

Q: Again, but for CCn1c(=O)c(-c2cccc(S(C)(=O)=O)c2)cc2cnc(NCCC3CCN(C)CC3)nc21
Result: 5.85

Q: Again, but for CCNc1ncc2cc(-c3cccc(S(C)(=O)=O)c3)c(=O)n(CC)c2n1
Result: < 5.35

Q: Again, but for CCN1CCC(CCNc2ncc3cc(-c4ccccc4S(C)(=O)=O)c(=O)n(CC)c3n2)CC1
Result: < 5.35

Reference for the values: patent US20140323478A1
